A collection of compounds and their measured IC50
- target.desc: CDK1/CCNB1 (Homo sapiens, UniProt P06493)
- Sequence (P06493 whole entry): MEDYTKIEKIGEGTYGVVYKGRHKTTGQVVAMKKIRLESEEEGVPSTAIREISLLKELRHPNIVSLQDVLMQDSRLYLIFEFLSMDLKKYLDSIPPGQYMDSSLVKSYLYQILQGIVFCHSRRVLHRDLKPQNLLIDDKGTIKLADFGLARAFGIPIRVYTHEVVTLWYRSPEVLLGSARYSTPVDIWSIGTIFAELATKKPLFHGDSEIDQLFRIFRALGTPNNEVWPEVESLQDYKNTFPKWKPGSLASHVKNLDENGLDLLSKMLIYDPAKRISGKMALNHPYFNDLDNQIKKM
- Sequence (P14635 whole entry partner): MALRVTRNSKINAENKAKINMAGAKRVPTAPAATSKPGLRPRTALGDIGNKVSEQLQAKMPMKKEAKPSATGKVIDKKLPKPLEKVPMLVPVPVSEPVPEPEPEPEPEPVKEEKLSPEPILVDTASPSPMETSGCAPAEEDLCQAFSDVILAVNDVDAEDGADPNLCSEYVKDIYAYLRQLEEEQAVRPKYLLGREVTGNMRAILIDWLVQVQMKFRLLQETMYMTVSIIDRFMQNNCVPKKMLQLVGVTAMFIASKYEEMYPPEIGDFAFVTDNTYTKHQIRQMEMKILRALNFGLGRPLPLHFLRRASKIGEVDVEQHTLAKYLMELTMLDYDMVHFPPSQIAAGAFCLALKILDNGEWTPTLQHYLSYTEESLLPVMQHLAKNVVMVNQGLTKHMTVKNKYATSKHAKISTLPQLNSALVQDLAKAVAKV
- assay.method.text: CDK1 homogeneous time-resolved fluorescence (HTRF) kinase assay
- Type: biochemical
- condition: 0.5 nM CDK1/CCNB1, 1 mM ATP; read-out: CDK1/CCNB IC50 >250 nM

compound	target.desc	assay.result
CS(=O)(=O)c1ccc(Nc2cc3c(C#Cc4ccc5c(c4)CCNC5)c(C#N)ccc3cn2)cc1 [Example 947]	CDK1/CCNB1 (Homo sapiens, UniProt P06493)	> 250 nM

Task: For the compound CS(=O)(=O)c1ccc(Nc2cc3c(N4CCC(C#N)CC4)ncnc3cn2)cc1 [Example 960] , report IC50.
Result: > 250 nM
